target: GST-TIE2 (intracellular domains of human TIE2) (Homo sapiens, UniProt Q02763); experiment: TIE-2 enzyme assay (TIE2-E), LANCE method; settings: 80 uM ATP
Sequence (Q02763 762-1104): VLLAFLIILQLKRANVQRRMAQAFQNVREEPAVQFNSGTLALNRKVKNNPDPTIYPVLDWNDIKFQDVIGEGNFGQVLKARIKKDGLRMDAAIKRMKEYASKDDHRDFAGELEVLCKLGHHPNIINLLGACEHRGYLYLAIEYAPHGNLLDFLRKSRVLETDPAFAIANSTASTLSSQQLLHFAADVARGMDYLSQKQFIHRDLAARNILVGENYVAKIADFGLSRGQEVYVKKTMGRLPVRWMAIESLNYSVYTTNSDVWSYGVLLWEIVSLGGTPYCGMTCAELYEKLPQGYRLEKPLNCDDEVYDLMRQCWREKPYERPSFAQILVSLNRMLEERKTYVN
assay readout: IC50

COC(=O)Nc1nc2cc(Oc3ccc(NC(=O)Nc4cccc(Cl)c4)cc3)ccc2[nH]1 [Example 1]; < 100 nM
O=C(Nc1ccc(Oc2ccc3nc(NC(=O)c4cccnc4)[nH]c3c2)cc1)Nc1cc(C(F)(F)F)ccc1F [Example 93]; < 100 nM
Cn1cnc(CC(=O)Nc2nc3cc(Oc4ccc(NC(=O)Nc5cc(C(F)(F)F)ccc5F)cc4)ccc3[nH]2)c1 [Example 97]; < 100 nM
CC(=O)NCC(=O)Nc1nc2cc(Oc3ccc(NC(=O)Nc4cc(C(F)(F)F)ccc4F)cc3)ccc2[nH]1 [Example 29]; < 100 nM
COC(=O)Nc1nc2cc(Oc3ccc(NC(=O)Nc4cc([N+](=O)[O-])ccc4F)cc3)ccc2[nH]1 [Example 46]; < 100 nM

Entry COC(=O)Nc1nc2cc(Oc3ccc(NC(=O)Nc4cc([N+](=O)[O-])ccc4C)cc3)ccc2[nH]1 [Example 47] , system GST-TIE2 (intracellular domains of human TIE2) (Homo sapiens, UniProt Q02763): what IC50 was measured?
< 100 nM

Entry COC(=O)Nc1nc2ccc(Sc3ccc(NC(=O)Nc4cc(OC)cc(OC)c4)cc3)cc2[nH]1 [Example 5] , system GST-TIE2 (intracellular domains of human TIE2) (Homo sapiens, UniProt Q02763): what IC50 was measured?
100 to 1000 nM
